- assayRemarks: Binding affinity to influenza A virus H5N1 RNA polymerase PB2 cap-binding domain by biacore-based SPR analysis
measuredQuantity: pKd
Lab note: report pKd as minus log10 of the concentration in molar units, number only.

Q: Using the record for C[n+]1cn(CC(=O)c2ccc(O)c(C(N)=O)c2)c2nc(N)nc([O-])c21 , report its pKd.
A: 4.89

----------
pIC50 values, listed per item
- assayRemarks: Inhibition of influenza A virus His-tagged H3N2 RNA polymerase PB2 cap-binding domain interaction with EDA-m7GpppA by AlphaScreen assay
Convention used: pIC50 is expressed as -log10 of the molar concentration.

C[n+]1cn(CC(=O)N[C@H](Cc2ccccc2)C(=O)O)c2nc(N)nc([O-])c21; 4.19
C[n+]1cn(CC(=O)O)c2nc(NCC(=O)O)nc([O-])c21; 4.36
C[n+]1cn(CC(=O)N[C@@H](Cc2ccccc2)C(=O)O)c2nc(N)nc([O-])c21; 4.06
C[n+]1cn(CC(=O)N[C@@H](CC(=O)O)C(=O)O)c2nc(N)nc([O-])c21; 4.48

Q: Fill in: pIC50 of C[n+]1cn(CC(=O)O)c2nc(NCCCCC(=O)O)nc([O-])c21 is ___
A: 4.02

Q: Item under review: C[n+]1cn(CC(=O)c2ccccc2)c2nc(N)nc([O-])c21 . Reported pIC50?
A: 4.86

Q: Endpoint output: pIC50 of CC(=O)Nc1nc([O-])c2c(n1)n(CC(=O)c1ccc(O)c(C(N)=O)c1)c[n+]2C . Value?
A: 3.89

Q: Reported pIC50 for C=CC[n+]1cn(CC(=O)c2ccc(O)c(C(N)=O)c2)c2nc(N)nc([O-])c21 : what is it?
A: 4.22

Q: State the recorded pIC50 for this entry: C[n+]1cn(CC(=O)N[C@@H](CCC(=O)O)C(=O)O)c2nc(N)nc([O-])c21
A: 4.35

Q: Fill blank: measured pIC50 of the molecule C[n+]1cn(CCCCC(=O)O)c2nc(NCCCCC(=O)O)nc([O-])c21 is ____.
A: 5.28

Q: Record request: pIC50 value, item C[n+]1cn(-c2cccc(C(=O)O)c2)c2nc(N)nc([O-])c21
A: 4.36

----------
// RU lookup, one value per entry
- System: Influenza A virus
- assayRemarks: Binding affinity to influenza A virus H5N1 RNA polymerase PB2 cap-binding domain at 10 uM by biacore-based SPR analysis
Form field (numeric): enter value without unit.

These solved cases illustrate the format of a correct answer.
C[n+]1cn(CC(=O)N[C@@H](CCC(=O)O)C(=O)O)c2nc(N)nc([O-])c21; 13.8
NC(=O)c1cc(C(=O)Cn2cnc3c(=O)[nH]c(N)nc32)ccc1O; 20.4
Nc1nc2c(ncn2CC(=O)c2ccc(O)c(C(=O)O)c2)c(=O)[nH]1; 22.6
C[n+]1cn(CCCCC(=O)O)c2nc(NCCCCC(=O)O)nc([O-])c21; 17.5

Q: # get_value(readout='RU', item= C[n+]1cn(CC(=O)c2ccc(O)c(C(N)=O)c2)c2nc(N)nc([O-])c21 )
A: 85.8

----------
- assayRemarks: Inhibition of influenza A virus His-tagged H3N2 RNA polymerase PB2 cap-binding domain interaction with EDA-m7GpppA by AlphaScreen assay
Measured pIC50 accompanies every entry in the list below.
Scale note: pIC50 = -log10(concentration in M).

Some solved cases for reference:
C[n+]1cn(CC(=O)N[C@H](CC(=O)O)C(=O)O)c2nc(N)nc([O-])c21; 4.04
CC[n+]1cn(CC(=O)c2ccc(O)c(C(N)=O)c2)c2nc(N)nc([O-])c21; 5.44
C[n+]1cn(CC(=O)c2ccc3ccccc3c2)c2nc(N)nc([O-])c21; 5.12
NC(=O)c1cc(C(=O)Cn2c[n+](Cc3ccccc3)c3c([O-])nc(N)nc32)ccc1O; 3.71
COc1ccc(-n2c[n+](C)c3c([O-])nc(N)nc32)cc1OC; 4.30
Nc1nc2c(ncn2CC(=O)c2ccc(O)c(C(=O)O)c2)c(=O)[nH]1; 5.25

Q: Which pIC50 value belongs to NC(=O)c1cc(C(=O)Cn2cnc3c(=O)[nH]c(N)nc32)ccc1O ?
A: 4.31

Q: Bench note: what pIC50 did C[n+]1cn(CC(=O)N[C@@H](Cc2ccc(O)cc2)C(=O)O)c2nc(N)nc([O-])c21 show?
A: 4.10

Q: I have this compound here, C[n+]1cn(CC(=O)c2ccc(O)c(C(=O)O)c2)c2nc(N)nc([O-])c21 , and I need its recorded pIC50.
A: 6.22

Q: Consider the compound C[n+]1cn(C(C(=O)c2ccccc2)c2ccccc2)c2nc(N)nc([O-])c21 (stereo unspecified) and give its measured pIC50.
A: 4.38

Q: # input compound: CC(C(=O)c1ccccc1)n1c[n+](C)c2c([O-])nc(N)nc21 (stereo unspecified) ; wanted: its pIC50
A: 4.19

Q: pIC50 for C[n+]1cn(CC(=O)N[C@H](Cc2ccccc2)C(=O)O)c2nc(NCCCCC(=O)O)nc([O-])c21 ?
A: 4.28

Q: Look up pIC50 for this compound: C[n+]1cn(CC(=O)c2ccc(O)c(C(N)=O)c2)c2nc(N)nc([O-])c21
A: 5.12

Q: GET /values?readout=pIC50&item= C[n+]1cn(-c2ccccc2)c2nc(N)nc([O-])c21
A: 3.85

Q: Need pIC50 of C[n+]1cn(CCCC(=O)O)c2nc(NCCCC(=O)O)nc([O-])c21 , thanks.
A: 3.85

Q: Record request: pIC50 value, item C[n+]1cn(CC(=O)c2ccc3c(c2)NC(=O)CO3)c2nc(N)nc([O-])c21
A: 4.64

Q: Find the recorded pIC50 belonging to C[n+]1cn(-c2ccc(C(=O)O)cc2)c2nc(N)nc([O-])c21 and report it.
A: 3.74

----------
- assayRemarks: Inhibition of influenza A virus His-tagged H3N2 RNA polymerase PB2 cap-binding domain interaction with EDA-m7GpppA by AlphaScreen assay
pIC50: −log10 of the molar value.
In this section we review reported pIC50 values for a set of compounds.

C[n+]1cn(CCCC(=O)O)c2nc(N)nc([O-])c21; ≤ 3.70

Q: Request the reported pIC50 associated with C[n+]1cn(CCC(=O)O)c2nc(N)nc([O-])c21
A: ≤ 3.70

Q: State the recorded pIC50 for this entry: C[n+]1cn(CC(=O)O)c2nc(N)nc([O-])c21
A: ≤ 3.70

Q: So what does the record say about pIC50 for CC(=O)Nc1nc([O-])c2c(n1)n(CC(=O)O)c[n+]2C ?
A: ≤ 3.70

Q: Item C[n+]1cn(CCCCC(=O)O)c2nc(N)nc([O-])c21 has what recorded pIC50?
A: ≤ 3.70

Q: // query pIC50 value for entry C[n+]1cn(CC(=O)NCC(=O)O)c2nc(N)nc([O-])c21
A: ≤ 3.70

Q: Would you mind telling me what pIC50 value was observed for C[n+]1cn(CCCCCC(=O)O)c2nc(N)nc([O-])c21 ?
A: ≤ 3.70

Q: Consider the compound shown here: Nc1nc2c(c(=O)[nH]1)[n+](Cc1ccccc1)cn2CCCCO What is its recorded pIC50?
A: ≤ 3.70

Q: I'd like to know its pIC50. The compound in question is C[n+]1cn(CC(=O)Nc2cc(C(=O)O)cc(C(=O)O)c2)c2nc(N)nc([O-])c21
A: ≤ 3.70
